assay: Antiproliferative activity against human Ovarian cancer DC#83 cells assessed as cell survival at 20 uM after 72 hrs by MTT assay relative to control; format: functional; details: read-out: Survival
# if measured viability at 20 µM < 70%: MET  # else: NOT MET

input: Criterion: viability at 20 µM strictly below 70%. Is it met by CN1C(=O)[C@@]23C[C@]4([C@]56C[C@@]78SS[C@@](CO)(C(=O)N7[C@H]5Nc5ccccc56)N(C)C8=O)c5ccccc5N[C@@H]4N2C(=O)[C@]1(CO)SS3 [CHAETOCIN] ?
output: MET

input: Repeat for the following compound: Nc1nccc2c1ncn2[C@@H]1C=C(CO)[C@@H](O)[C@H]1O
output: MET

input: Param item: CCCCN1C(=O)[C@H]2Cc3c(n(CO)c4ccccc34)CN2C1=O
output: NOT MET

input: Then what about the compound CN1CCN(C(=O)[C@H]2Cc3c([nH]c4ccccc34)[C@@H]3N(C)c4ccccc4C(=O)N23)CC1 ?
output: NOT MET

input: Further, for CCCCN1C(=O)[C@@H]2Cc3c([nH]c4ccccc34)CN2C1=O ?
output: NOT MET

input: Input CN1c2ccccc2C(=O)N2CCc3c([nH]c4ccccc34)[C@H]21
output: MET

input: Request: C#Cc1cccc(Nc2ncnc3cc(OCCOC)c(OCCOC)cc23)c1 [ERLOTINIB]
output: NOT MET

input: # repeat for N[C@@H]1C[C@H]1c1ccccc1.N[C@H]1C[C@@H]1c1ccccc1 [TRANYLCYPROMINE]
output: NOT MET

input: Similarly, CCN(CC)CCNC(=O)c1c(C)[nH]c(/C=C2\C(=O)Nc3ccc(F)cc32)c1C [SUNITINIB] ?
output: NOT MET

input: Thanks! And Cc1nc(Nc2ncc(C(=O)Nc3c(C)cccc3Cl)s2)cc(N2CCN(CCO)CC2)n1 [DASATINIB] ?
output: NOT MET

input: Subsequent entry: C#CCN(C)Cc1ccccc1 [PARGYLINE]
output: NOT MET

input: Next compound: COc1cc2nc(N3CCCN(C)CC3)nc(NC3CCN(Cc4ccccc4)CC3)c2cc1OC
output: NOT MET

input: Also, CCCCN1C(=O)[C@@H]2Cc3c(n(CO)c4ccccc34)CN2C1=O please.
output: NOT MET

input: Param item: CCCCN1C(=O)[C@H]2Cc3c([nH]c4ccccc34)CN2C1=O
output: NOT MET

input: Note, next up: Cc1ccc(-c2cn3c(n2)sc2ccccc23)cc1
output: NOT MET

* * *

test system: MCF7; experiment: Induction of apoptosis in human MCF7 cells assessed as viable cells at 15 uM after 72 hrs by AnnexinV-FITC staining based flow cytometry (reference value: 60.5 +/- 6 %); assay type: functional; conditions: MCF7, 72 h, read-out: Activity
Kindly supply the reported viability at 15 µM values for the records listed here.
Kindly format the answer as number then unit.

input: What value of measured viability at 15 µM is listed for CCCCN1C(=O)[C@@H]2Cc3c([nH]c4ccccc34)CN2C1=O ?
output: 47.7%

input: Would you mind doing CCCCN1C(=O)[C@H]2Cc3c(n(CO)c4ccccc34)CN2C1=O as well?
output: 52.1%

input: What do we get for CN1c2ccccc2C(=O)N2CCc3c([nH]c4ccccc34)[C@H]21 ?
output: 41.9%

input: Same for Nc1nccc2c1ncn2[C@@H]1C=C(CO)[C@@H](O)[C@H]1O
output: 52.6%

input: Another: CCCCN1C(=O)[C@@H]2Cc3c(n(CO)c4ccccc34)CN2C1=O
output: 58.6%

input: Try this molecule next: Cc1ccc(-c2cn3c(n2)sc2ccccc23)cc1
output: 45.2%

* * *

system: MCF7; assay: Inhibition of DNA methylation in human MCF7 cells assessed as decrease in methylation of RARbeta DNA by qPCR method; format: cell-based
Activity calls are given as the source filed them. The rule behind the calls is not given here.
Lab note: assign the record to one of yes (1) (active), no (0) (inactive)

input: Identify the outcome logged in this assay for the compound shown: CN1C(=O)[C@@]23C[C@]4([C@]56C[C@@]78SS[C@@](CO)(C(=O)N7[C@H]5Nc5ccccc56)N(C)C8=O)c5ccccc5N[C@@H]4N2C(=O)[C@]1(CO)SS3
output: yes (1)

input: Queued: CCCCN1C(=O)[C@@H]2Cc3c([nH]c4ccccc34)CN2C1=O
output: no (0)

input: Now consider CN1CCN(C(=O)[C@H]2Cc3c([nH]c4ccccc34)[C@@H]3N(C)c4ccccc4C(=O)N23)CC1 and answer again.
output: yes (1)

input: Param item: Cc1ccc(-c2cn3c(n2)sc2ccccc23)cc1
output: no (0)

input: Please do the same for CCCCN1C(=O)[C@@H]2Cc3c(n(CO)c4ccccc34)CN2C1=O as well.
output: yes (1)

input: Ok, now CCCCN1C(=O)[C@H]2Cc3c([nH]c4ccccc34)CN2C1=O
output: yes (1)

input: Would you kindly repeat that for CCCCN1C(=O)[C@H]2Cc3c(n(CO)c4ccccc34)CN2C1=O ?
output: yes (1)

* * *

target: Histone-lysine N-methyltransferase EHMT2 (Homo sapiens) (UniProt Q96KQ7); test: Inhibition of G9a in human MCF7 nuclear extracts assessed as reduction in H3K27 levels at 15 uM after 48 hrs; format: cell-based
Sequence (Q96KQ7 whole entry): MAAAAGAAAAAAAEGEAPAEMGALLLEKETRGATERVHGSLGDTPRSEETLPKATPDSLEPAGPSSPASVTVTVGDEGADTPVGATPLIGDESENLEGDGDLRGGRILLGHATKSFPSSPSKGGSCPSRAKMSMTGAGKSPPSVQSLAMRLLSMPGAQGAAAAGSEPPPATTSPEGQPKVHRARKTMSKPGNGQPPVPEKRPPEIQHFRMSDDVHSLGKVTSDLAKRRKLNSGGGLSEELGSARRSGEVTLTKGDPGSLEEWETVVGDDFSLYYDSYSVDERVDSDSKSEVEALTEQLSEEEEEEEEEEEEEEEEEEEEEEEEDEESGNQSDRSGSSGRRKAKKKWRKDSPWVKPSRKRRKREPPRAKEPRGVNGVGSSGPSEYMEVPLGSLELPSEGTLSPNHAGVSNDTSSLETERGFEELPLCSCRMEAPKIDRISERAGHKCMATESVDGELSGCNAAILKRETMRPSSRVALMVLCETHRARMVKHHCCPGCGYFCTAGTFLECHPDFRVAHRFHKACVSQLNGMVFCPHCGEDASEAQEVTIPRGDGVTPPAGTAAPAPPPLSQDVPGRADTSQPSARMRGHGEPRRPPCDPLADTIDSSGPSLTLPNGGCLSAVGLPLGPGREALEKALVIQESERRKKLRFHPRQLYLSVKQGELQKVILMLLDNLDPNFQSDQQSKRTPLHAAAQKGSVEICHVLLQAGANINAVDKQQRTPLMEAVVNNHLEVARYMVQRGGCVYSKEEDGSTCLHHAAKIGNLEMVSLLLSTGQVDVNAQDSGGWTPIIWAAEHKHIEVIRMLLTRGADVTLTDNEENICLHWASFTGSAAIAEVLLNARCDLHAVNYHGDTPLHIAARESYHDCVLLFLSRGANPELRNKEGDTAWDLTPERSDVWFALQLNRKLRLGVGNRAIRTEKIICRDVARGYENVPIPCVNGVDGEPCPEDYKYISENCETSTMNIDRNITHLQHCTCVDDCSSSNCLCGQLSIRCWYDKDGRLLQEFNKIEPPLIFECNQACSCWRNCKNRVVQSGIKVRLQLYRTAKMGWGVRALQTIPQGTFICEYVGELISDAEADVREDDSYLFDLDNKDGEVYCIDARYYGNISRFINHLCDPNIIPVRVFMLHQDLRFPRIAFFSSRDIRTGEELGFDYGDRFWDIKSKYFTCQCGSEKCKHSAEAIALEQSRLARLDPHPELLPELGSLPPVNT
Activity calls are given as the source filed them. No cut-off for these calls is given here.
Please state which outcome applies, choosing from active, inactive

input: # lookup: test call for Nc1nccc2c1ncn2[C@@H]1C=C(CO)[C@@H](O)[C@H]1O
output: active

input: Try the molecule COc1cc2nc(N3CCCN(C)CC3)nc(NC3CCN(Cc4ccccc4)CC3)c2cc1OC
output: active

input: Try CN1CCN(C(=O)[C@H]2Cc3c([nH]c4ccccc34)[C@@H]3N(C)c4ccccc4C(=O)N23)CC1 next.
output: active

input: Thanks! And CCCCN1C(=O)[C@@H]2Cc3c(n(CO)c4ccccc34)CN2C1=O ?
output: active

input: Now the molecule CN1c2ccccc2C(=O)N2CCc3c([nH]c4ccccc34)[C@H]21
output: inactive

input: // query: Cc1ccc(-c2cn3c(n2)sc2ccccc23)cc1
output: inactive

input: Ok, now CCCCN1C(=O)[C@H]2Cc3c(n(CO)c4ccccc34)CN2C1=O
output: active

input: Again, but for CCCCN1C(=O)[C@H]2Cc3c([nH]c4ccccc34)CN2C1=O
output: inactive

* * *

assay: Antiproliferative activity against human Ovarian cancer DC#110 cells assessed as cell survival at 20 uM after 72 hrs by MTT assay relative to control; type: functional; settings: read-out: Survival
Hi there, I'd appreciate the recorded viability at 20 µM for every entry that follows.
The response must be a number in % with no trailing unit.

input: Any idea what viability at 20 µM was measured for CN1CCN(C(=O)[C@H]2Cc3c([nH]c4ccccc34)[C@@H]3N(C)c4ccccc4C(=O)N23)CC1 ?
output: 87.7

input: Would you kindly repeat that for CCN(CC)CCNC(=O)c1c(C)[nH]c(/C=C2\C(=O)Nc3ccc(F)cc32)c1C ?
output: 54.2

input: Quick one: Cc1nc(Nc2ncc(C(=O)Nc3c(C)cccc3Cl)s2)cc(N2CCN(CCO)CC2)n1
output: 58.7

input: Also C#Cc1cccc(Nc2ncnc3cc(OCCOC)c(OCCOC)cc23)c1 ?
output: 75.3

* * *

assay: Antiproliferative activity against human Ovarian cancer DC#110 cells assessed as cell survival at 20 uM after 72 hrs by MTT assay relative to control; assay type: functional; details: read-out: Survival
For each of the compounds below, state its viability at 20 µM.
// units = %; emit number, no label

input: # viability at 20 µM lookup, item CN1c2ccccc2C(=O)N2CCc3c([nH]c4ccccc34)[C@H]21
output: 43.1

input: Entry to check: CN1C(=O)[C@@]23C[C@]4([C@]56C[C@@]78SS[C@@](CO)(C(=O)N7[C@H]5Nc5ccccc56)N(C)C8=O)c5ccccc5N[C@@H]4N2C(=O)[C@]1(CO)SS3 [CHAETOCIN]
output: -4.22

input: Try this compound next: CCCCN1C(=O)[C@@H]2Cc3c(n(CO)c4ccccc34)CN2C1=O
output: 93.8

input: What about Cc1ccc(-c2cn3c(n2)sc2ccccc23)cc1 ?
output: 80.1

input: What about CCCCN1C(=O)[C@H]2Cc3c([nH]c4ccccc34)CN2C1=O ?
output: 86.4

input: How about this compound: N[C@@H]1C[C@H]1c1ccccc1.N[C@H]1C[C@@H]1c1ccccc1 [TRANYLCYPROMINE]
output: 93.6

input: Thanks! And COc1cc2nc(N3CCCN(C)CC3)nc(NC3CCN(Cc4ccccc4)CC3)c2cc1OC ?
output: 73

input: Input C#CCN(C)Cc1ccccc1 [PARGYLINE]
output: 59.1

input: Further, for CCCCN1C(=O)[C@@H]2Cc3c([nH]c4ccccc34)CN2C1=O ?
output: 80.8

input: How about this compound: Nc1nccc2c1ncn2[C@@H]1C=C(CO)[C@@H](O)[C@H]1O
output: 13.6

input: And for CCCCN1C(=O)[C@H]2Cc3c(n(CO)c4ccccc34)CN2C1=O ?
output: 82.2
